Biological target: human PD-L1 expressed on CHO-K1 cells (Genscript, Cat #M00543) (human, UniProt Q9NZQ7 19-290)
Sequence (Q9NZQ7 19-290, one chain of several): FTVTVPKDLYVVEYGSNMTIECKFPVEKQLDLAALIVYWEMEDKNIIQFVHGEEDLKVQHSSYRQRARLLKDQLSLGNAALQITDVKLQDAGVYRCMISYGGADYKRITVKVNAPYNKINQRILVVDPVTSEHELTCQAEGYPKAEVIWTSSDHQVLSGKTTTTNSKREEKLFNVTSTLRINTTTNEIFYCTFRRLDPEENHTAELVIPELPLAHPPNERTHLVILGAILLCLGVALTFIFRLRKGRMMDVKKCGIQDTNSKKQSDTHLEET
Experiment: cell-based or functional assay
EC50, PD-L1 cell-based luciferase reporter assay reference
Quick note: give the figure in nM, leave out the unit.

Check out these entries, answers already filled in.
29A8_chimeric (antibody, human IgG1, kappa, N297A, V domains shown, Human IgG1 with effector-less Fc mutations, human kappa; also called chimeric 29A8H8C7) VH: DVQLQGSGPGLVKPSQSLSLTCTVTGYSITSDFAWDWIRQFPGNKLEWMGHIRFSGTTSYNPSLKSRISITRDTSKNQFFLQLNSVTSEDTATYYCARSTLITKGFFDYWGQGTTLTVSS VL: DIVMTQSHKFMSTSVGGRVSITCKASQDVSPAVAWYQQKPGQSPKLLIYWASTRHTGVPDRFTGSGSGTDFTLTISSVQTEDLALYYCQQHYSTPWTFGGGTKLEIKR	1.34
53C1_VH3-VL1.M1 (antibody, human IgG1, kappa, N297A, V domains shown, Humanized, hIgG1 effector-less Fc, kappa; see recheck on K24R in the .M1 light chain) VH: EVQLVQSGAEVKKPGASVKLSCKASGYIFTGYGITWVRQAPGQGLEWIGEIFPRRVNTYYSEKFKGRATLTADTSTSTAYMELRSLRSDDTAVYFCARDYDPYFALDYWGQGTTVTVSS VL: DIQMTQSPSSLSASVGDRVTITCRASQDVSTAVDWYQQKPGKAPKLLIYSASYRYTGVPDRFSGSGSGTDFTFTISSLQPEDIATYYCQQHYSIPFTFGQGTKLEIKR	2.26
29A8_VH5-VL1.M1 (antibody, human IgG1, kappa, N297A, V domains shown, Humanized, hIgG1 effector-less Fc, kappa; see recheck on K24R in the .M1 light chain) VH: EVQLQESGPGLVKPSETLSLTCTVSGYSITSDFAWDWIRQPPGKGLEWIGHIRFSGTTSYNPSLKSRVTISRDTSKNQFSLKLSSVTAADTAVYYCARSTLITKGFFDYWGQGTLVTVSS VL: DIQMTQSPSSLSASVGDRVTITCRASQDVSPAVAWYQQKPGKAPKLLIYWASTRHTGVPSRFSGSGSGTDFTLTISSLQPEDFATYYCQQHYSTPWTFGQGTKVEIKR	1.81

Let us examine a further case.
Any idea what its EC50, PD-L1 cell-based luciferase reporter assay is? The binder is 53C1_chimeric (antibody, human IgG1, kappa, N297A, V domains shown, Human IgG1 with effector-less Fc mutations, human kappa; also called chimeric 53C1F3D4) VH: QVQLQQSGNELARPGASVRLSCKASGYIFTGYGITWVRQRPGQGLEWIGEIFPRRVNTYYSEKFKGRATLTADISSSTAYMELRSLTSEDSAVYFCARDYDPYFALDYWGQGTSVTVSS VL: DIVMTQSHKFMSTSVGDRVSITCKASQDVSTAVDWYQQKPGQSPKLLIYSASYRYTGVPDRFTGSGSGTAFTFTISGEQAEDLAVYYCQQHYSIPFTFGGGTKLEIKR
1.98
